pIC50: −log10 of the molar value.
These compounds were tested on HSD17B13 (Homo sapiens (Human), UniProt Q7Z5P4); pIC50 is the recorded read-out.
Sequence (Q7Z5P4 20-300): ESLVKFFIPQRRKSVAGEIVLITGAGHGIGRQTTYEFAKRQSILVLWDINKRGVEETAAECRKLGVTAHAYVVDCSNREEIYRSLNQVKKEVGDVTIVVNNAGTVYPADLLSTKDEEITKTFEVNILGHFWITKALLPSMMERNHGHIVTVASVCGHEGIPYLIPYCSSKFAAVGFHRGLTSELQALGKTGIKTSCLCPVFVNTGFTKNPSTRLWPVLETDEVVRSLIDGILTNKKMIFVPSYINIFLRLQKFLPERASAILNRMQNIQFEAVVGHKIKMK
observation_type: pIC50

{"compound": "CC(C)(C)CCn1cnc2cccc(NC(=O)c3cc(Cl)c(O)c(Cl)n3)c2c1=O [Example 61]", "target": "HSD17B13 (Homo sapiens (Human), UniProt Q7Z5P4)", "observation_type": "pIC50", "value_reported": "6.30 to 7.00"}
{"compound": "Cn1c(=O)n(Cc2ccccc2OC(F)(F)F)c(=O)c2c(NC(=O)c3cc(Cl)c(O)c(Cl)n3)cccc21 [Example 113]", "target": "HSD17B13 (Homo sapiens (Human), UniProt Q7Z5P4)", "observation_type": "pIC50", "value_reported": "6.30 to 7.00"}
{"compound": "O=C(Nc1cccc2ncn(C(c3ccccc3)c3ccccc3)c(=O)c12)c1cc(Cl)c(O)c(Cl)c1 [Example 78]", "target": "HSD17B13 (Homo sapiens (Human), UniProt Q7Z5P4)", "observation_type": "pIC50", "value_reported": "≥ 7.00"}
